Target: T1, human CD79B on the surface of cells (DoHH2 / DOHH-2, WSU-DLCL2) (human, UniProt P40259 29-229)
T1 construct: whole, on cells; also called CD79B protein on the surface of DoHH2 cells; DoHH2 cell
T1 sequence (looked up): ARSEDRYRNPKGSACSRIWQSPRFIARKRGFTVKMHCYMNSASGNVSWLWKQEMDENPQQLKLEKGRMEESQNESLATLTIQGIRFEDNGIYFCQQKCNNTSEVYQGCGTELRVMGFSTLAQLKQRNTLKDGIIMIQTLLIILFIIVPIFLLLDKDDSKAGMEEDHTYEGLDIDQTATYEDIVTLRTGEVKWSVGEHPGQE
Experiment: FACS on DoHH2 cells
Would you kindly list EC50 (read off the curve) for each of these binders?

# binder, test result
measured = [
    ("mAb015 (antibody, V domains shown, Mouse monoclonal antibody from hybridoma; also called 83B2G2) VH: QVQLQQSGAELARPGASVKLSCKASGSSFTSYGINWVKQRTGQGLEWIGEIFPRSGNTYYNEKFEGKATLTADKSSSTAYMELRSLTSEDSAVYFCAKGDLGDFDYWGQGTTLTVSS VL: DFLMTQTPLSLPVRLGDQASISCRSSQSIVHSDGNTYFEWYLQKPGQSPKLLIYKVSNRFSGVPDRFSGSGSGTDFTLKISRVEAEDLGVYYCFQGSHVPWTFGGGTKLEIK", "~0.03 µg/mL"),
]

Record EC50 (read off the curve) per entry; entries follow.
1. SN8 (antibody, human IgG1, kappa, V domains shown, also called positive control antibody; the antibody in Polivy (polatuzumab vedotin)) VH: EVQLVESGGGLVQPGGSLRLSCAASGYTFSSYWIEWVRQAPGKGLEWIGEILPGGGDTNYNEIFKGRATFSADTSKNTAYLQMNSLRAEDTAVYYCTRRVPIRLDYWGQGTLVTVSS VL: DIQLTQSPSSLSASVGDRVTITCKASQSVDYEGDSFLNWYQQKPGKAPKLLIYAASNLESGVPSRFSGSGSGTDFTLTISSLQPEDFATYYCQQSNEDPLTFGQGTKVEIKR
2. mAb017 (antibody, V domains shown, Mouse monoclonal antibody from hybridoma; also called 86F11F6) VH: QVQLQQSGAELARPGASVKLSCKASGYTFTTYGINWVKQRTGQGLEWIGEIYPRSGNIYYNEKFKGKATLTADKSSSTAYMELRSLTSEDSAVYFCARGSDYDGDFAYWGQGTLVTVSA VL: DVLMTQTPLSLPVSLGDQASISCRSSQSIVHHDGNTYLEWYLQKPGQSPKLLIYKVSNRFSGVPDRFSGSGSGTDFTLKISRVEAEDLGVYYCFQGSHVPWTFGGGTQLEIK
3. mAb016 (antibody, V domains shown) VH: QVQLQQSGAELARPGASVKLSCKASGYIFTNYGIIWVKQRTGQGLEWIGDIFPGSGNTYYNENFKGKATLTADKSSSTAYMELRSLTSEDSAVYFCSRGELGDFDYWGQGTTLTVSS VL: VVLMTQTPLSLPVSLGDQASISCRSSQNIVHSDGTTYLEWYLQKPGQSPKLLIYKVSNRFSGVPDRFSGSGSGTDFTLKISRVEAEDLGIYYCFQGSHVPWTFGGGTKLEIK

~0.09 µg/mL
~0.02 µg/mL
~0.02 µg/mL

The values you see were collected from patent US20260248946A1.
